- Assay Target: SARS-CoV-2 spike protein receptor binding domain (isolated RBD) (SARS-CoV-2, UniProt P0DTC2 319-541)
Metric: koff (s⁻¹)

* IMPI-047 (antibody, V domains shown) VH: EVQLVESGGGLIQPGGSLRLSCAASGFTVSSNYMNWVRQAPGKGLEWVSVIYSGGSTYYADSVKGRFTISRDNSKNTLYLQMNSLRTEDTAVYYCARDLVAYGMDVWGQGTTVTVSS VL: DIQLTQSPSFLSASVGDRVTITCWASQGISSYLAWYQQKPGKAPKVLIYAASTLQSGVPSRFSGSGSGTEFTLTISSLQPEDFATYYCQLLNSNPLTFGGGTKVEIK | 0.000878
* IMPI-060 (antibody, V domains shown) VH: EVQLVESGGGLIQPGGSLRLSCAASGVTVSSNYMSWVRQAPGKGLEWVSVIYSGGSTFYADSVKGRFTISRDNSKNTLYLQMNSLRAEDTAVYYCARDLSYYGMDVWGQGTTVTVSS VL: DIQLTQSPSFLSASVGDRVTITCWASQGISSYLAWYQQKPGKAPKLLIYAASTLQSGVPSKFSGSGSGTEFTLTISSLQPEDFATYYCQQLNSYPSSFGQGTKLEIK | 0.0277
